# System: LXFL 529
# Test method notes: NCI tumour cell line growth inhibition, 48 h
Activity calls are given as the source filed them. Rule as the data show it: active = GI50 up to about 1.1 µM and inactive = higher.
Test readout: GI50

CC1(C)CC(C2CC(C)(C)CC(C)(C)[C@H]2O)[C@@H](O)C(C)(C)C1 (stereo not given in full) :: > 100 µM (inactive)

Continue with the next compound.
The compound identified as COc1ccc(C2=NOP(c3ccccc3)(c3ccccc3)(c3ccccc3)C2)cc1 registered its GI50 at 5.57 µM (inactive)

====

# System: LXFL 529
# Test method notes: NCI tumour cell line growth inhibition, 48 h
Activity calls are given as the source filed them. No stated cut-off is given here; in the data, active = GI50 up to about 1.1 µM and inactive = higher.
Test readout: GI50

// worked examples, GI50 included
COC1=CC(=O)OC(/C=C(C)/C=C/C2=C(C)CCCC2(C)C)C1 (configuration not stated) :: > 100 µM (inactive)
O=c1cc(-c2ccccc2)[nH]c2c(F)ccc(F)c12 :: 68.5 µM (inactive)
COc1ccc2c(c1)C(CCN)C(=O)N2 (configuration not stated) :: > 100 µM (inactive)
COc1ccc(C(=O)C(c2ccc(OC)cc2)C2(O)C(=O)Nc3ccc([N+](=O)[O-])cc32)cc1 (configuration not stated) :: > 100 µM (inactive)
COc1cc2cc3c4c(cc(OC)c(OC)c4c2cc1OC)CCN3C(=O)CCC(=O)NCCCN(C)C :: 61 µM (inactive)
O=S(=O)(/C=C/CS(=O)(=O)c1ccccc1)c1ccccc1 :: 29.1 µM (inactive)
Cc1ccc(C2=C(c3ccccc3)C(O)(c3ccc(C)cc3)C(c3ccccc3)=C2c2ccc(C)cc2)cc1 :: 60.1 µM (inactive)
CCCCCCCCCCCCCCCCCCOCC(C[N+]1(C)CCC(O)CC1)OCC (configuration not stated) :: 2.84 µM (inactive)
NC(=O)c1ncn2c(=O)n(CCCl)nnc12 [MITOZOLOMIDE] :: > 100 µM (inactive)
CC(=O)OC1C=CC2CCN3C(=O)c4cc5c(cc4[C@H]1C23)OCO5 (some centres not stated) :: > 100 µM (inactive)

Reported GI50 for Cc1nc(Nc2ccccc2)sc1C(=O)CC(=O)C(=O)Nc1c(C(C)C)cccc1C(C)C was 60 µM (inactive)

Lab note: measured GI50 of CCOC(=O)[C@H]1CSC[C@@H](C(=O)OC)N1 was > 100 µM (inactive)

// field: GI50; key: O=C1N/C(=C\[N+](=O)[O-])c2ccccc21 ; value = > 100 µM (inactive)

For C1CSCCSCCCS[C@@H]2CCCCC2SC1 (some centres not stated) the molecule record lists GI50 as > 100 µM (inactive)

For record CCOc1cc2c(cnc3c4cc(OC)c(OC)cc4ccc23)cc1OC the listed GI50 is > 100 µM (inactive)

Looking up O=C(NCCCN1CCN(CCCNC(=O)c2cnc3ccccc3n2)CC1)c1cnc2ccccc2n1 , I found its GI50 recorded as > 100 µM (inactive)

# GI50 of O=C1O[C@@H](c2ccccc2)C[C@@H]1CN1CCOCC1 = > 100 µM (inactive)

====

# Tested on: KM12
# Test method notes: NCI tumour cell line growth inhibition, 48 h
Active and inactive are the calls of the source. Cut-off read from the data, not from the text of the source: active = GI50 up to about 1.1 µM and inactive = higher.
Measured GI50, listed per entry for reference.

COc1ccc(C[C@H]2COC(=O)[C@@H]2Cc2cccc(Br)c2)cc1OC :: 18.8 µM (inactive)

// GI50 value for CC(C)(Oc1ccc2c(=O)cc(-c3ccccc3)oc2c1)C(=O)N1CCN(c2ccccc2)CC1 : 3.42 µM (inactive)

Entry CN1C2CCC1CC(CCOC(c1ccc(F)cc1)c1ccc(F)cc1)C2 (centres undefined) , GI50 reported as 14.8 µM (inactive)

Lookup result for CC(=O)CCNc1ccc(-c2cc(-c3ccc(N(C)C)cc3)nc3ccc4ccccc4c23)cc1 ; measured GI50: 27.5 µM (inactive)

Please fill in: GI50 reported for COc1ccc2c(c1)CCc1cnn(C3OC(COC(C)=O)C(OC(C)=O)C(OC(C)=O)C3OC(C)=O)c1-2 (centres undefined) = > 100 µM (inactive)

# compound NC(Cc1ccccc1)C(=O)OCN1C(=O)C2C3C=CC(C2C1=O)C1C2C(=O)N(COC(=O)C(N)Cc4ccccc4)C(=O)C2C31 (centres undefined) ; its GI50 = 21.3 µM (inactive)

Quick note, GI50 for CCC(CCCC[C@@H]1CC[C@H]2CC(=O)C[C@@H]12)OC (some centres undefined) landed at > 100 µM (inactive)

Given item CCCCCC(C)C[C@H]1CO[C@H](c2ccc[nH]2)N[C@H]1C(=O)OC (some centres undefined) , the value recorded as its GI50 is > 100 µM (inactive)

The compound listed as CCN1CCC(O)(c2ccc(O)cc2)C(C(=O)c2ccc(O)cc2)C1 (centres undefined) shows GI50 equal to 22.2 µM (inactive)

Lab note: CC(C)=CCC/C(C)=C/CC/C(C)=C/C(O)c1ccccc1 (centres undefined) gave GI50 of 23.6 µM (inactive)

// data source = ChEMBL document CHEMBL1201862
